- System: KM12
- Assay Info: NCI tumour cell line growth inhibition, 48 h
Active and inactive are the calls of the source. Cut-off read from the data, not from the text of the source: active = GI50 up to about 1.1 µM and inactive = higher.
Property Measured: GI50

CSc1nc(C)c2c(n1)N(c1ccc(Cl)cc1)CC2: > 100 µM (inactive)
c1ccc(CN(Cn2cccn2)Cn2cccn2)nc1: > 100 µM (inactive)
O=c1[nH]nc(-c2ccccc2)c(-c2ccccc2)c1-n1nc(-c2ccccc2)c2ccccc2c1=O: 65.8 µM (inactive)
O=C(COC(c1ccc(F)cc1)c1ccc(F)cc1)N1CCN(CCCc2ccccc2)CC1: 4.06 µM (inactive)
CC1(c2ccc[n+](Cc3ccccc3)c2)OCCO1: > 100 µM (inactive)

Ask | Query: GI50; subject: O=C1CSC(c2cccc(Cl)c2)N1c1ccc(-n2c(-c3ccccc3)nc3ccccc3c2=O)cc1 (stereo unspecified)
Reply | 21.3 µM (inactive)

Ask | Query: GI50; subject: Cn1c(NN)nc(-c2ccc([N+](=O)[O-])cc2)c(C#N)c1=O
Reply | 16.3 µM (inactive)

Ask | Query: GI50; subject: CCOC(=O)C(Cc1cccn1C(=O)OC(C)(C)C)[N+](=O)[O-] (stereo unspecified)
Reply | 22.8 µM (inactive)

Ask | Query: GI50; subject: Clc1cc(Cl)cc(/N=C/C=C/Nc2cc(Cl)cc(Cl)c2)c1
Reply | 16.2 µM (inactive)

Ask | Query: GI50; subject: O=C1NC(=O)C2(CCC(O)C2)c2cc[n+]([O-])cc21 (stereo unspecified)
Reply | > 100 µM (inactive)

Ask | Query: GI50; subject: NNc1nc2ccccc2c(=O)n1NC(=O)C(=O)Nc1cccc(C(F)(F)F)c1
Reply | > 100 µM (inactive)
